System: HGGX39 (paediatric high-grade glioma line)
Test: growth inhibition (% activity, log2 RLU normalised to DMSO / staurosporine); higher = more growth inhibition
Details: 33 µM
The following compounds are listed with their measured growth inhibition values.
// return numeric value only (unit: %, not printed)

COMPOUND	growth inhibition / %
C[N+](C)(C)CCCCCC[N+](C)(C)C	-1.88
C#C[C@]1(O)CC[C@H]2[C@@H]3CCc4cc(O)ccc4[C@H]3CC[C@@]21C	0.261
CN(N=O)C(=O)N[C@H]1C(O)O[C@H](CO)[C@@H](O)[C@@H]1O (mixture of isomers)	0.924
CS(=O)(=O)Nc1ccc([N+](=O)[O-])cc1Oc1ccccc1	2.03

*Q* Item "C[C@@H]1CCN(C(=O)CC#N)C[C@@H]1N(C)c1ncnc2[nH]ccc12" : provide growth inhibition
*A* 1.55

*Q* Item CN1CCCC(n2nc(Cc3ccc(Cl)cc3)c3ccccc3c2=O)CC1 (centres undefined) : provide growth inhibition
*A* 7.54

*Q* Item "CC1=C(/C=C/C(C)=C/C=C/C(C)=C/C=C/C=C(C)/C=C/C=C(C)/C=C/C2=C(C)CCCC2(C)C)C(C)(C)CCC1" : provide growth inhibition
*A* -4.95

*Q* Item "CO[C@H]1C[C@@H]2CC[C@@H](C)[C@@](O)(O2)C(=O)C(=O)N2CCCC[C@H]2C(=O)O[C@H]([C@H](C)C[C@@H]2CC[C@@H](OC(=O)C(C)(CO)CO)[C@H](OC)C2)CC(=O)[C@H](C)/C=C(\C)[C@@H](O)[C@@H](OC)C(=O)[C@H](C)C[C@H](C)/C=C/C=C/C=C/1C" : provide growth inhibition
*A* 6.98

*Q* Item "N=C(N)c1ccc(N=NNc2ccc(C(=N)N)cc2)cc1" : provide growth inhibition
*A* 7.13

*Q* Item "O=C(O)c1cc(/N=N/c2ccc(S(=O)(=O)Nc3ccccn3)cc2)ccc1O" : provide growth inhibition
*A* 1.21

*Q* Item O=C(O)CSCC(=O)NC1CCSC1=O (centres undefined) : provide growth inhibition
*A* 0.576

*Q* Item "COCCCC/C(=N\OCCN)c1ccc(C(F)(F)F)cc1" : provide growth inhibition
*A* 4.47

*Q* Item "N[C@@H](Cc1ccc(O)c(O)c1)C(=O)O" : provide growth inhibition
*A* 2.68

*Q* Item "CCCC(=O)O[C@]1(C(=O)COC(C)=O)CC[C@H]2[C@@H]3C[C@H](F)C4=CC(=O)C=C[C@]4(C)[C@@]3(F)[C@@H](O)C[C@@]21C" : provide growth inhibition
*A* 2.12

*Q* Item "Nc1nc(N)nc(-c2cc(Cl)ccc2Cl)n1" : provide growth inhibition
*A* -0.32

*Q* Item "COc1cc(OC)c(C(=O)CCCN2CCCC2)c(OC)c1" : provide growth inhibition
*A* 1.04

*Q* Item "O=C(Nc1ccc([N+](=O)[O-])cc1Cl)c1cc(Cl)ccc1O" : provide growth inhibition
*A* 4.01

*Q* Item CCC(NC(C)C)C(O)c1ccc(O)c(O)c1 (centres undefined) : provide growth inhibition
*A* 2.82

*Q* Item "CC(=O)OCC(=O)[C@@]1(O)CC[C@H]2[C@@H]3CCC4=CC(=O)CC[C@]4(C)[C@H]3C(=O)C[C@@]21C" : provide growth inhibition
*A* -6.61

---

The following compounds are listed with their measured growth inhibition values.
Test system: SUDIPGVI (diffuse intrinsic pontine glioma line)
Assay: growth inhibition (% activity, log2 RLU normalised to DMSO / staurosporine); higher = more growth inhibition
Details: 33 µM
// return numeric value only (unit: %, not printed)

Worked cases, answers included:
COMPOUND	REPORTED_MEASUREMENT
C=C1/C(=C\C=C2/CCC[C@]3(C)[C@@H]([C@H](C)CCCC(C)C)CC[C@@H]23)C[C@@H](O)C[C@@H]1O	1.52
O=c1cc[nH]c(=O)[nH]1	1.23
COC(=O)C1=C(C#N)NC(C)=C(C(=O)OC(C)C)C1c1cccc([N+](=O)[O-])c1 (stereo not drawn)	-1.47
Cc1c(Nc2ncccc2C(=O)O)cccc1C(F)(F)F	2.1
Nc1nc(=O)[nH]cc1F	2.66

*Q* Item "C#C[C@]1(O)CC[C@H]2[C@@H]3CCC4=CC(=O)CC[C@@H]4[C@H]3CC[C@@]21C" : provide growth inhibition
*A* 0.661

*Q* Item "CCCN(CCC)S(=O)(=O)c1ccc(C(=O)O)cc1" : provide growth inhibition
*A* -6.21

*Q* Item "CCOc1cc(CC(=O)N[C@@H](CC(C)C)c2ccccc2N2CCCCC2)ccc1C(=O)O" : provide growth inhibition
*A* -6.9

*Q* Item "CC(=O)Oc1cc(C(F)(F)F)ccc1C(=O)O" : provide growth inhibition
*A* -2.15

*Q* Item "O=C(NCCO[N+](=O)[O-])c1cccnc1" : provide growth inhibition
*A* 1.67

*Q* Item "C[C@]12CC[C@H](O)CC1=CC[C@@H]1[C@@H]2CC[C@]2(C)C(c3cccnc3)=CC[C@@H]12" : provide growth inhibition
*A* -2.29

*Q* Item Clc1ccc(CCC(Cn2ccnc2)Sc2c(Cl)cccc2Cl)cc1 (stereo not drawn) : provide growth inhibition
*A* 4.83
